Answer each item with its documented GI50.
System: HOP-92
protocol.text: NCI tumour cell line growth inhibition, 48 h
Calls of active or inactive are those of the source. No stated cut-off is given here; in the data, active = GI50 up to about 1.1 µM and inactive = higher.

// returns reported GI50 for input NC(CCc1nc(-c2ccccc2)cs1)C(=O)O (stereo unspecified)
> 100 µM (inactive)

What does the record list as GI50 for `CCOc1ccc(NC(=O)c2c(N/N=C/c3ccc(OC)cc3)nc(=O)[nH]c2C)cc1` ?
46.2 µM (inactive)

Dear colleague, I am looking for the recorded GI50 of the following compound: `O=C(/C=C/c1ccc(OCc2ccccc2)cc1)NCc1ccc(C(=O)NCCc2c[nH]c3ccccc23)cc1`
21 µM (inactive)

// returns reported GI50 for input `Cc1c(C(=O)O)c2cc3ccccc3cc2c(=O)n1C`
> 10 µM (inactive)

Param item = COc1ccc2c(c1)CCC1C3(CCCC21C)OCCO3 (stereo unspecified) ; retrieve measured GI50.
15.1 µM (inactive)

Please give the measured GI50 for this compound: CC(=O)OC1CC2(C)C(OC(C)=O)CC1C2(C)C (stereo unspecified)
> 100 µM (inactive)
